# credit: patent US10882818B1

system: multidrug-resistant Pseudomonas aeruginosa MDR-PA 18-202; experiment: Antibacterial activity test, MIC by microbroth dilution; assay type: cell-based; conditions: 37° C., 20-22 hours
Measured Minimum bacteriostatic concentration, listed per entry.
Output spec: scalar in µg/mL, unitless text.

compound: CO/N=C(\C(=O)N[C@@H]1C(=O)N2C(C(=O)O)=C(CSc3nc(=O)c(=O)[nH]n3C)CS[C@H]12)c1csc(N)n1 [Ceftriaxone sodium, ceftriaxone sodium]
property name: Minimum bacteriostatic concentration
value reported: 16

Ask | Endpoint output: Minimum bacteriostatic concentration of Cc1nnc(SCC2=C(C(=O)O)N3C(=O)[C@@H](NC(=O)Cn4cnnn4)[C@H]3SC2)s1 [Cefazolin sodium, cefazolin sodium] . Value?
Reply | 128
